Origin of values: patent US20240261333A1

Target: T1, B3GNT2 (Homo sapiens, UniProt Q9NY97)
T1 construct: The respective ORFs of candidate genes [CD274 (NM_014143), MCL1 (NM_021960), JUNB (NM_002229), and B3GNT2 (NM_006577)] were synthesized; expressed in transfected cells; host or cells: A375 melanoma cells (lentiviral ORF overexpression)
T1 sequence (Q9NY97 1-397): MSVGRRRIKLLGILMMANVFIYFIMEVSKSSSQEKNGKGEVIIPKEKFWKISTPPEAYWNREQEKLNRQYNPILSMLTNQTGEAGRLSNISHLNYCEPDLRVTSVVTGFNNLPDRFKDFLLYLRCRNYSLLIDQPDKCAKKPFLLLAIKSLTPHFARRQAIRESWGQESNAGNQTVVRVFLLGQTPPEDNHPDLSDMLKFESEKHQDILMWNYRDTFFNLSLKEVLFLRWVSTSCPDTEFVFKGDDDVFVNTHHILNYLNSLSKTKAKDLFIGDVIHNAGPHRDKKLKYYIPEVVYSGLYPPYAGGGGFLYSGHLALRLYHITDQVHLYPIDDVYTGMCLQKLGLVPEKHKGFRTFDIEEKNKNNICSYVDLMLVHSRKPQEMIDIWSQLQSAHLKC
Assay: Co-IP of FLAG-tagged B3GNT2 followed by mass spectrometry
Type: cell-based
Settings: Co-IP with FLAG antibody, N-terminally FLAG-tagged B3GNT2; mass spectrometry count, unit not given
MEASURE NAME: N-term FLAG

Asked: State its N-term FLAG: SDF4 (protein) RPANHSSTRERVANREENEILPPDHLNGVKLEMDGHLNRGFHQEVFLGKDLGGFDEDAEPRRSRRKLMVIFSKVDVNTDRKISAKEMQRWIMEKTAEHFQEAMEESKTHFRAVDPDGDGHVSWDEYKVKFLASKGHSEKEVADAIRLNEELKVDEETQEVLENLKDRWYQADSPPADLLLTEEEFLSFLHPEHSRGMLRFMVKEIVRDLDQDGDKQLSVPEFISLPVGTVENQQGQDIDDNWVKDRKKEFEELIDSNHDGIVTAEELESYMDPMNEYNALNEAKQMIAVADENQNHHLEPEEVLKYSEFFTGSKLVDYARSVHEEF
Given back: 0
